target.under.test: Endoplasmic reticulum aminopeptidase 1 (ERAP1) (UniProt Q9NZ08 1-941, limits assumed)
Sequence (Q9NZ08 whole entry): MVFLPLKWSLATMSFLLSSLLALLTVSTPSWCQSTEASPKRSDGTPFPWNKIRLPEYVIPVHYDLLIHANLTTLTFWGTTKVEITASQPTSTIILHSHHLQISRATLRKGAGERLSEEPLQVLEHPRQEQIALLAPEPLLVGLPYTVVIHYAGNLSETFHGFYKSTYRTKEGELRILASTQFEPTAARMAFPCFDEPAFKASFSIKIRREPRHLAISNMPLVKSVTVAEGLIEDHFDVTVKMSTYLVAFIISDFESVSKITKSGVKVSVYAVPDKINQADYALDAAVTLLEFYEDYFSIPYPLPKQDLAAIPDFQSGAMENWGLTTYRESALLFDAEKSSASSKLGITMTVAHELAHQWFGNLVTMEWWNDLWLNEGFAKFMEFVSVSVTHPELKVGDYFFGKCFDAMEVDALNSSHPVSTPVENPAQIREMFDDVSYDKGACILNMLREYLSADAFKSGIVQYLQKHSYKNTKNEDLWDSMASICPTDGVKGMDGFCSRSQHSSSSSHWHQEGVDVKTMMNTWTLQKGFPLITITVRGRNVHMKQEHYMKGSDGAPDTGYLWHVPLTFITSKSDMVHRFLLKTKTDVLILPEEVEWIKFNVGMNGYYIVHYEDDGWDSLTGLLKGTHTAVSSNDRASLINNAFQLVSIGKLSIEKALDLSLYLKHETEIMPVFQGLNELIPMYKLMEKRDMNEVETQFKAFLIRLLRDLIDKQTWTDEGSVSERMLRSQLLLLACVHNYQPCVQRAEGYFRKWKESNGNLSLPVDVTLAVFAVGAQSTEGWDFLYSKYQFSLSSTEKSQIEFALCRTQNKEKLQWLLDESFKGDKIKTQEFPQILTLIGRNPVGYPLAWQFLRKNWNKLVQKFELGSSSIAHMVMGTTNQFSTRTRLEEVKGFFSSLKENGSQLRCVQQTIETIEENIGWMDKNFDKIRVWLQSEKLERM
experimental.details: cell-based or functional assay
measurement.kind: formation rate of … (SEQ ID NO: 19)(%)
Give a bare numeral; the unit % is implied.

input: Recorded formation rate of … (SEQ ID NO: 19)(%) for CIGLYDGMEHL [peptide CIGLYDGMEHL (SEQ ID NO: 166)] , please?
output: 0.4

input: Any idea what its formation rate of … (SEQ ID NO: 19)(%) is? The binder is CEGLYDGMEHL [peptide CEGLYDGMEHL (SEQ ID NO: 163)]
output: 6.2

input: # query: formation rate of … (SEQ ID NO: 19)(%) of entry CPGLYDGMEHL [peptide CPGLYDGMEHL (SEQ ID NO: 169)]
output: 0

input: Can you share its formation rate of … (SEQ ID NO: 19)(%)? I mean this binder: CQGLYDGMEHL [peptide CQGLYDGMEHL (SEQ ID NO: 162)]
output: 56.9
